# measuredTarget: UniProtKB P04150
# Sequence (P04150 whole entry): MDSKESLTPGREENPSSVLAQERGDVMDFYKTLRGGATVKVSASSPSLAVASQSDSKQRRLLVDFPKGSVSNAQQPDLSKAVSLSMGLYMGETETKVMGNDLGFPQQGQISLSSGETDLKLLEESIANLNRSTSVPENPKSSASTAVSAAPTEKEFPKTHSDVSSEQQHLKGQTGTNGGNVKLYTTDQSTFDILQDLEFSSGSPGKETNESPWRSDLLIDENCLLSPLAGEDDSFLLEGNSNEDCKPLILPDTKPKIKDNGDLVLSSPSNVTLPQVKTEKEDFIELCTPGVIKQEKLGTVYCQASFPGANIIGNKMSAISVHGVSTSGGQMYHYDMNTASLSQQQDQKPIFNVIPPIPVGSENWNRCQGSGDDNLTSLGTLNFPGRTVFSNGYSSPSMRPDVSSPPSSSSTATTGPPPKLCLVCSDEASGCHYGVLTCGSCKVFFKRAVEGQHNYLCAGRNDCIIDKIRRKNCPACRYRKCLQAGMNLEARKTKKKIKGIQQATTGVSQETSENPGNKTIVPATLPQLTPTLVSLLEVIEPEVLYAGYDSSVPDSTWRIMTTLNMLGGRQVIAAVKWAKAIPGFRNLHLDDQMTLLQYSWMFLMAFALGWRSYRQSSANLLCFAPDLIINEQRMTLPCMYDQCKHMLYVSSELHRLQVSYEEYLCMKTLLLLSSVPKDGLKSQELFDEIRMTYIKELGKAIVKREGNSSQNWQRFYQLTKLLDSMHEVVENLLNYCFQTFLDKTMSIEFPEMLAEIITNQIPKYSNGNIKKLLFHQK
# assayProcedure: Briefly, purified human recombinant full-length glucocorticoid receptor (2 nM) was mixed with fluorescently labeled glucocorticoid (1 nM Fluormone GS Red) in the presence or absence of test compound. After two hour incubation at room temperature in the dark, the fluorescence polarization (FP) of the samples was measured. […] Test compounds were analyzed in the concentration range from 8.5E-05 μM to 5 μM. Binding Assay (II):In order to measure the binding of compounds on the glucocorticoid receptor a commercially available kit was used (Glucocorticoid receptor competitor assay kit, PanVera Co., Madison, Wis., P2816). Briefly, a cell lysate containing recombinantly expressed human full-length glucocorticoid receptor was mixed with a fluorescently labeled glucocorticoid (1 nM Fluormone GS1) in the presence or absence of test compound. After one hour at room temperature, the fluorescence polarization (FP) of the samples were measured. […] An appropriate cell lysate or purified NHR is used as the source of the NHR. The fluorescent probe and unlabeled competitor are appropriate for the specific NHR, i.e., are ligands for the specific NHR.
Recorded Ki for the following compounds
Report as a plain number; the unit nM is understood.

Below are worked cases with known answers.
>>> print(df.to_string())
                                  smilesstr  observable  numericreadout
0  CC(=O)NC(=O)C(C)(C)[C@H]1c2ccccc2Oc2nc(-c3ccc(C(=O)N4CCOCC4)cc3)ccc21          Ki            7.01
1  COC(=O)NC(=O)C(C)(C)[C@@H]1c2ccc(-c3ccc(C(=O)OC)cc3)nc2Oc2c(F)cccc21          Ki            5.28
2  CC(C)S(=O)(=O)c1ccc(-c2ccc3c(n2)Oc2ccccc2[C@@H]3C(C)(C)C(=O)NC(N)=O)cc1          Ki            0.58
3  CC(C)(O)c1ccc(-c2ccc3c(n2)Oc2c(F)cccc2[C@@H]3C(C)(C)C(=O)NC(=O)NCCO)cc1          Ki            25.1

Data request, read-out Ki, for CC(C)(O)CNC(=O)NC(=O)C(C)(C)[C@@H]1c2ccc(-c3ccc(C(C)(C)O)cc3)nc2Oc2c(F)cccc21 20.8

Values were extracted from ChEMBL document CHEMBL5725882.
